Tested on: intracellular HBV DNA
Experimental protocol: Real-time PCR for intracellular HBV DNA in HepAD38 cells
Type: cell-based
Details: Hepatitis B virus, HePAD38, 65 h, 65 hours treatment
pIC50: −log10 of the molar value.
For each record, write down the corresponding pIC50.

May I ask what pIC50 has been recorded for CCOCCc1c(CN(C(=O)Nc2ccc(F)cc2)c2ccc(OC)nc2)n[nH]c1C(F)(F)F ?
< 5.96

Name the recorded pIC50 for COc1ccc(N(Cc2cc(C(F)(F)F)[nH]n2)C(=O)Nc2ccc(F)c(Cl)c2)nn1 .
< 5.96

Would you mind telling me what pIC50 value was observed for COc1ncc(N(Cc2cc(C(F)(F)F)[nH]n2)C(=O)Nc2ccc(Cl)c(C#N)n2)cn1 ?
< 5.96

Record request: pIC50 value, item COc1ccc(N(Cc2nn(CCO)c3c2CCC3)C(=O)Nc2ccc(F)c(Cl)c2)cn1
< 6.52

For the compound shown here, COc1ncc(N(Cc2cc(C(F)(F)F)[nH]n2)C(=O)Nc2cnc(SC)nc2)cn1 , give the reported pIC50.
< 5.96

Look up pIC50: Cn1cc(N(Cc2n[nH]c3c2CCC3)C(=O)Nc2ccc(F)c(Cl)c2)ccc1=O
< 5.96

* * *

Kindly state IC50 for each of the entries shown.
Test system: intracellular HBV DNA
Experimental protocol: Real-time PCR for intracellular HBV DNA in HepAD38 cells
Assay type: cell-based
Details: Hepatitis B virus, HePAD38, 65 h, 65 hours treatment
Enter your answer as a number in µM; do not include the unit.

Entry COc1ccc(N(Cc2n[nH]c3c2CC(F)(F)CC3)C(=O)Nc2ccc(F)c(Cl)c2)cn1 [Example 40] has what IC50?
0.016

Please report the recorded IC50 for COc1ccc(N(Cc2nn(C)c3c2CCCC3)C(=O)Nc2ccc(F)c(Cl)c2)cc1 [Example 36] .
0.036

I'd like to know its IC50. The compound in question is COc1ccc(N(Cc2n[nH]c3c2COC3)C(=O)Nc2ccc(F)c(Cl)c2)cn1 [Example 69]
0.021

For COc1ncc(N(Cc2cc(C(F)(F)F)[nH]n2)C(=O)Nc2cc(F)c(F)c(F)c2)cn1 [Example 219] , what is its reported IC50?
0.012

# get_value(readout='IC50', item= O=C(Nc1ccc(F)c(Cl)c1)N(Cc1n[nH]c2c1CCCC2)c1nncs1 [Example 133] )
0.11

If you can, please state the reported IC50 value of COc1ccc(N(Cc2n[nH]c3c2CC(O)CC3)C(=O)Nc2ccc(F)c(Cl)c2)cn1 (stereo not drawn) [Example 48] .
1.1

Query: IC50; subject: COC12CC(N(Cc3cc(C(F)(F)F)[nH]n3)C(=O)Nc3cc(F)c(F)c(F)c3)(C1)C2 [Example 222]
0.12

// query IC50 value for entry COc1cc(N(Cc2cc(C(F)(F)F)[nH]n2)C(=O)Nc2ccc(F)c(C#N)c2)cnn1 [Example 163]
0.007

Tell me the measured IC50 of COc1ncc(N(Cc2cc(C(F)(F)F)[nH]n2)C(=O)Nc2ccc(F)c(C(F)F)n2)cn1 [Example 202] , please.
0.046

* * *

Experimental protocol: Cell viability assay (EZ-Cytox), cytotoxicity
Type: cell-based
Details: human, HepAD38 cells
Endpoint: CC50 at 65 h

Reported CC50 at 65 h for Cn1cc(N(Cc2n[nH]c3c2CCCC3)C(=O)Nc2ccc(F)c(Cl)c2)cn1 : what is it?
> 100 µM

Quick one: CC50 at 65 h for CC(C)(O)c1cc(N(Cc2n[nH]c3c2CCOC3)C(=O)Nc2ccc(F)c(Cl)c2)ccn1 ?
> 66 µM

Sample COc1ncc(N(Cc2cc(C(F)F)[nH]n2)C(=O)Nc2cccc(C(F)F)c2)cn1 — what was its CC50 at 65 h?
> 100 µM

This collection of values is drawn from patent US20250009742A1.
